- Target of assay: human mAChR M4 (Homo sapiens)
- Construct: expressed in transfected cells; host or cells: CHO-K1 (ATCC), stably expressing hM4 and Gqi5
- Assay: mAChR M4 cell-based functional assay: calcium flux (Fluo-4, FDSS), positive allosteric modulator activity on the EC20 acetylcholine response, hM4-Gqi5 CHO-K1 cells
- Measurement context: Human M4 EC50, human M4; PAM activity on EC20 acetylcholine response, calcium flux
pEC50: −log10 of the molar value.

Mol smiles | pEC50
Fc1ccc2ncnc(N3CCc4ncc(-n5cccn5)cc4C3)c2c1 | 6.66

* * *

- Target of assay: human mAChR M4 (Homo sapiens, UniProt P08173)
- Construct: expressed in transfected cells; host or cells: CHO-K1 (ATCC), stably expressing hM4 and Gqi5
- Sequence (P08173 1-479): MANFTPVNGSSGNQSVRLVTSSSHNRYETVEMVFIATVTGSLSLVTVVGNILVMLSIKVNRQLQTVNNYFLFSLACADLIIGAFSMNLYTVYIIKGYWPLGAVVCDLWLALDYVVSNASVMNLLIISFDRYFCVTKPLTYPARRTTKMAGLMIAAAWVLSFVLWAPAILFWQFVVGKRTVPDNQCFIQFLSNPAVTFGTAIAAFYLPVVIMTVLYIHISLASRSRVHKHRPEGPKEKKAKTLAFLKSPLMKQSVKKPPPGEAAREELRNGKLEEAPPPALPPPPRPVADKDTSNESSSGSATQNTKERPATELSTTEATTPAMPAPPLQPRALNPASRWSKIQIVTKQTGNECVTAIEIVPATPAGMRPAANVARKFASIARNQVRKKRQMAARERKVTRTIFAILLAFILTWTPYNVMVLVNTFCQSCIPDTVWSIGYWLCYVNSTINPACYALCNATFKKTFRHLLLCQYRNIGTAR
- Assay: mAChR M4 cell-based functional assay: calcium flux (Fluo-4, FDSS), positive allosteric modulator activity on the EC20 acetylcholine response, hM4-Gqi5 CHO-K1 cells
- Measurement context: human M4; PAM activity on EC20 acetylcholine response, calcium flux; read-out: Human M4 EC50
Quantity measured: log10 EC50 (log10 of the value in nM)

Molecule | log10 EC50
Cc1nc(N2CCc3ncc(N4CCCn5nccc54)cc3C2)c2cc(F)ccc2n1 | 1.95
Cc1ccc2nc(C)nc(N3CCc4ncc(C(F)(F)F)cc4C3)c2c1 | 1.78
COc1ccc2nc(Cl)nc(N3CCc4ncc(C(F)(F)F)cc4C3)c2c1 | 2.62
Cc1noc(C)c1-c1cnc2c(c1)CN(c1ncnc3ccc(Cl)cc13)CC2 | 1.78
Fc1ccc2nc(N3CCCC3)nc(N3CCc4ncc(C(F)(F)F)cc4C3)c2c1 | 2.86
CN1CCN(c2cnc3c(c2)CN(c2ncnc4ccc(F)cc24)CC3)CC12COC2 | 2.85
Cc1nc(N2CCc3ncc(N4CCOc5ncccc54)cc3C2)c2cc(F)ccc2n1 | 1.48
Cc1ccc2nc(NC3CCOC3)nc(N3CCc4ncc(C(F)(F)F)cc4C3)c2c1 (centres unmarked) | 2.64
